- target.of.assay: T1, Cyno IL-6R (cynomolgus monkey, UniProt A0A2K5WN54 60-396)
- T1 construct: also called cynomolgus monkey IL-6R; recombinant cyno sIL-6R
- T1 sequence: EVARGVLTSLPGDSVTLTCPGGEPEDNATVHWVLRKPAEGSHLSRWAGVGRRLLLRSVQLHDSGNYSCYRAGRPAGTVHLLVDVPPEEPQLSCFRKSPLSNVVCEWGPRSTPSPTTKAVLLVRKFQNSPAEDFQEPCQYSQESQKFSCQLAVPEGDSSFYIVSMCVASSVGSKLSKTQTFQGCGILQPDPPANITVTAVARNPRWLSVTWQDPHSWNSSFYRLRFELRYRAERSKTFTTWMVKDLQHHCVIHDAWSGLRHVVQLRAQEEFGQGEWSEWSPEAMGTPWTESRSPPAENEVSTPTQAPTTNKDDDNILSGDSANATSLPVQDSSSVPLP
- assay.summary: SPR Biacore 3000, cyno IL-6R amine-coupled to CM5
measured.property: Kd (nM)
Give bare numbers, in nM.

IL6R65 (VHH, also called ILR65; parent Nanobody) VHH: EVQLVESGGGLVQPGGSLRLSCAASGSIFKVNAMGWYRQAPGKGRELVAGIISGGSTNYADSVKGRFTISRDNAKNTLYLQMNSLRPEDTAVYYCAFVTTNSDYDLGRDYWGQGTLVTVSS : 12
IL6R04 (VHH, also called PMP32C9; not shown: C-terminal c-myc and (His)6 tags) VHH: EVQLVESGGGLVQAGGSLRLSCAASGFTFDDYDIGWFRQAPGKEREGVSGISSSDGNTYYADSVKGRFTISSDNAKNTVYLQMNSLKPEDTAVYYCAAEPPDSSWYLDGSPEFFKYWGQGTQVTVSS : 171
IL6R201 (VHH, also called tagless version of IL6R75; 16R201/75) VHH: EVQLVESGGGLVQPGGSLRLSCAASGFTFSDYDIGWFRQAPGKGREGVSGISSSDGNTYYADSVKGRFTISRDNAKNTLYLQMNSLRPEDTAVYYCAAEPPDSSWYLDGSPEFFKYWGQGTLVTVSS : 28.1

Form: binder = IL6R03 (VHH, also called PMP31A4; not shown: C-terminal c-myc and (His)6 tags) VHH: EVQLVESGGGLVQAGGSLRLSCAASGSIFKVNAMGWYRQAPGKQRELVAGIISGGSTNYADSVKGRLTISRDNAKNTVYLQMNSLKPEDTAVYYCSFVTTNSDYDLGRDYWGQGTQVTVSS ; Kd = 4.4
